# Study system: PI3K-α (PIK3CA) H1047R mutant (p110α/p85α complex) (Homo sapiens, UniProt P42336, H1047R)
# Construct: Recombinant, catalytically active human full length PIK3KA Wild-type and H1047R mutant were purchased as 1:1 complex; 6xHis (N); purchased EMD Millipore Sigma 14-792M
# Sequence (P42336 whole entry H1047R): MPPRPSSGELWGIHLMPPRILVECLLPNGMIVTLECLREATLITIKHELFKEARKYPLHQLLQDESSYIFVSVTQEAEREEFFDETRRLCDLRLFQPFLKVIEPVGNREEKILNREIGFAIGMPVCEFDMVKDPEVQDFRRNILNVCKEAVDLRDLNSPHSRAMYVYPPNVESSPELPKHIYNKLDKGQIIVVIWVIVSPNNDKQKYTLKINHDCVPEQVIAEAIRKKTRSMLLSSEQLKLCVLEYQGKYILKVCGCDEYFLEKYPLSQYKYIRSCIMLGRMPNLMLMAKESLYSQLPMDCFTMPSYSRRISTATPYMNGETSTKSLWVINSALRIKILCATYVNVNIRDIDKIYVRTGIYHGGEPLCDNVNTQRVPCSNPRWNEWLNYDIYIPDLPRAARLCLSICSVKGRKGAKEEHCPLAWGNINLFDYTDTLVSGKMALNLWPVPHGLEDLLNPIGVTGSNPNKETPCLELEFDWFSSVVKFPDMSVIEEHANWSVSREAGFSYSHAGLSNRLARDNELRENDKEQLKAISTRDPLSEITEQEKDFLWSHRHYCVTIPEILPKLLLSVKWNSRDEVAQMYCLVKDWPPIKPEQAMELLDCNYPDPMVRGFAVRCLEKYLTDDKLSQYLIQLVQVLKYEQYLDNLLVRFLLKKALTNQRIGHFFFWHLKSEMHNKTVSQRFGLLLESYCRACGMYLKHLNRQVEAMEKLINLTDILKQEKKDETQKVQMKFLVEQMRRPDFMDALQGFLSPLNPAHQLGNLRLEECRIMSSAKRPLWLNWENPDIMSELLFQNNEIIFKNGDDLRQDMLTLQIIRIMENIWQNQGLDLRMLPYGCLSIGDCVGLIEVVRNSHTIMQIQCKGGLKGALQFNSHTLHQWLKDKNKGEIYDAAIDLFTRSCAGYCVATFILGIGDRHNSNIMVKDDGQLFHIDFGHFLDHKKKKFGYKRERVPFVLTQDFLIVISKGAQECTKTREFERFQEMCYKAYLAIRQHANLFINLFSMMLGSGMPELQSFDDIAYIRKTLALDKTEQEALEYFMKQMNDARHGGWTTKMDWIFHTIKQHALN
# Sequence (P27986 whole entry partner): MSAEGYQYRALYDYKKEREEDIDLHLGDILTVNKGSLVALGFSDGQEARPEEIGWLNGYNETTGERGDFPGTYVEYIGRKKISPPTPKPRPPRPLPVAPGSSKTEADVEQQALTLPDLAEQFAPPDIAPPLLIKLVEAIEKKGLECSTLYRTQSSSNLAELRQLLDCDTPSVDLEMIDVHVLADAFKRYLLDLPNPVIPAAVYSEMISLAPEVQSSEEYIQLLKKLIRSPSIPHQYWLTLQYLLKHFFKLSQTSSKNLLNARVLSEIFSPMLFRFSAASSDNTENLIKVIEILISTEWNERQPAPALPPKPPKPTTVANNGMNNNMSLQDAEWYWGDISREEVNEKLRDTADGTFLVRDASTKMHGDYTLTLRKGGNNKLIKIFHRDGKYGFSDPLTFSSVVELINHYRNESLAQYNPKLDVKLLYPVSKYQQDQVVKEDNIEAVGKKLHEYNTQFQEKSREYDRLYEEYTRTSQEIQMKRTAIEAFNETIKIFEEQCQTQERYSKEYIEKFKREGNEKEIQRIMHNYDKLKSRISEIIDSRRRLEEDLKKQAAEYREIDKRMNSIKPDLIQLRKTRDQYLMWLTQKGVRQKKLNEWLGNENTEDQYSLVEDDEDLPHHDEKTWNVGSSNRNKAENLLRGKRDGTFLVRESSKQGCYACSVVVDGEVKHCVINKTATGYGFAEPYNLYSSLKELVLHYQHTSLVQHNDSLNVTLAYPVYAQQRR
# Test protocol: PI3K-Alpha kinase (PIK3CA) biochemical ADP-Glo assay, H1047R mutant
# Experimental conditions: Soy PI lipid substrate; 20 uM ATP; 1 h pre-incubation
# Source text: PI3K-Alpha kinase (PIK3CA) activity, wild-type and H1047R mutant and determining IC50 values for inhibitors Recombinant, catalytically active human full length PIK3KA Wild-type and H1047R mutant were purchased as 1:1 complex of N-terminal 6× his tagged p110α (catalytic) and untagged p85α (regulatory subunit) from EMD Millipore Sigma (cat. no. 14-602M and 14-792M, respectively). […]
Endpoint label: IC50

Q: Enter IC50 (test system PI3K-α (PIK3CA) H1047R mutant (p110α/p85α complex) (Homo sapiens, UniProt P42336, H1047R)) for Cc1cc(C(C)Nc2ccccc2C(=O)O)c2oc(C3CCC(F)(F)CC3)cc(=O)c2c1 (single isomer, unassigned; isomer 2) [Example 15]
Result: < 0.5 µM

Q: Enter IC50 (test system PI3K-α (PIK3CA) H1047R mutant (p110α/p85α complex) (Homo sapiens, UniProt P42336, H1047R)) for Cc1cc(C(C)Nc2ccccc2C(=O)O)c2oc(C3Cc4ccccc4C3)cc(=O)c2c1 (single isomer, unassigned; isomer 2) [Example 19]
Result: < 0.5 µM

Q: Enter IC50 (test system PI3K-α (PIK3CA) H1047R mutant (p110α/p85α complex) (Homo sapiens, UniProt P42336, H1047R)) for Cc1cc(C(C)Nc2ccccc2C(=O)O)c2oc(C3CCC(F)(F)CC3)c(C)c(=O)c2c1 (single isomer, unassigned; isomer 2) [Example 17]
Result: > 10 µM

Q: Enter IC50 (test system PI3K-α (PIK3CA) H1047R mutant (p110α/p85α complex) (Homo sapiens, UniProt P42336, H1047R)) for Cc1cc(C(C)Nc2ccccc2C(=O)O)c2oc(C3Cc4ccccc4C3)c(C)c(=O)c2c1 (single isomer, unassigned; isomer 1) [Example 21]
Result: < 0.5 µM

Q: Enter IC50 (test system PI3K-α (PIK3CA) H1047R mutant (p110α/p85α complex) (Homo sapiens, UniProt P42336, H1047R)) for Cc1cc(C(C)Nc2ccccc2C(=O)O)c2oc(C3Cc4ccccc4C3)cc(=O)c2c1 (single isomer, unassigned; isomer 1) [Example 18]
Result: 1 to 5 µM

Q: Enter IC50 (test system PI3K-α (PIK3CA) H1047R mutant (p110α/p85α complex) (Homo sapiens, UniProt P42336, H1047R)) for Cc1cc(C(C)Nc2ccccc2C(=O)O)c2oc(C3Cc4ccccc4C3)c(C)c(=O)c2c1 (single isomer, unassigned; isomer 2) [Example 22]
Result: > 10 µM

Q: Enter IC50 (test system PI3K-α (PIK3CA) H1047R mutant (p110α/p85α complex) (Homo sapiens, UniProt P42336, H1047R)) for Cc1cc(C(C)Nc2ccccc2C(=O)O)c2oc(C3(c4ccccc4)CC3)cc(=O)c2c1 (stereo not shown)
Result: < 0.5 µM
